# SYSTEM_UNDER_TEST: Tyrosine-protein kinase receptor UFO (Homo sapiens, UniProt P30530)
# Sequence (P30530 whole entry): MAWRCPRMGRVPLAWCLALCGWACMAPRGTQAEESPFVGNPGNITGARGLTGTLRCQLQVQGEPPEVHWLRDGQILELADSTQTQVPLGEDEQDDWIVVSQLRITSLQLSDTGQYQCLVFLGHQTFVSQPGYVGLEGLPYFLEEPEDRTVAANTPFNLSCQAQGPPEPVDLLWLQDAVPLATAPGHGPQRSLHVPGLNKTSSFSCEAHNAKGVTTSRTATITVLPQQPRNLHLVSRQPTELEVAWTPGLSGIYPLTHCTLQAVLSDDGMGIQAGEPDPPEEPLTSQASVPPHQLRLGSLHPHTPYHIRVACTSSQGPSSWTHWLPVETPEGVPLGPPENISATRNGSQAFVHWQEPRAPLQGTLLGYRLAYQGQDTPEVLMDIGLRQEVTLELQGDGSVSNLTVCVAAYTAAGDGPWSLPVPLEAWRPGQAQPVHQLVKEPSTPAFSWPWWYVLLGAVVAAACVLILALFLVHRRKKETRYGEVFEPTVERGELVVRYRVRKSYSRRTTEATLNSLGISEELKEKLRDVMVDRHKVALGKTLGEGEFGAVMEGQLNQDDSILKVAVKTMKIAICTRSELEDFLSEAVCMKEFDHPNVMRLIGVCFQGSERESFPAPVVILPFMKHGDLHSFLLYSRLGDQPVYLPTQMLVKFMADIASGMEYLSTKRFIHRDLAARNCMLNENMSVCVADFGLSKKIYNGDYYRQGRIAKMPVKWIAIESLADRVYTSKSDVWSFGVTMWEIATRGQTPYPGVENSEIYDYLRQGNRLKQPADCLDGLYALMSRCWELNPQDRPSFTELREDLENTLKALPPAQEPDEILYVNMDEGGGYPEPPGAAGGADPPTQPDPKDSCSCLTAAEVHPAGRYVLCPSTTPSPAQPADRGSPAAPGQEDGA
# PROTOCOL_TEXT: Inhibition of AXL (unknown origin) by ELISA
pIC50: −log10 of the molar value.
MEASURED_ATTRIBUTE: pIC50

Cn1cc(-c2ccc(NC(=O)c3cn(CC4CCOCC4)cc(-c4ccc(F)cc4)c3=O)c(F)c2)c2c(N)ncnc21 : 9.70
CN(C)C(=O)Cn1cc(C(=O)Nc2ccc(-c3cn(C)c4ncnc(N)c34)cc2)c(=O)c(-c2ccc(F)cc2)c1 : 9.30
Cc1cc(-c2cn(C)c3ncnc(N)c23)ccc1NC(=O)c1cn(CC2CCOCC2)cc(-c2ccc(F)cc2)c1=O : 8.40

[I] Cn1cc(-c2ccc(NC(=O)c3cn(CC4CCOCC4)cc(-c4ccc(C(F)(F)F)cc4)c3=O)cc2)c2c(N)ncnc21
[II] CN(C)CCn1cc(-c2ccc(NC(=O)c3cn(CC4CCOCC4)cc(-c4ccc(F)cc4)c3=O)cc2)c2c(N)ncnc21
[III] Cn1cc(-c2ccc(NC(=O)c3cn(CC4CCOCC4)cc(-c4ccccc4)c3=O)cc2)c2c(N)ncnc21
[IV] Cn1cc(-c2ccc(NC(=O)c3cn(CC4CCOCC4)cc(-c4ccc(Cl)cc4)c3=O)cc2)c2c(N)ncnc21
Put the compounds in ascending order of pIC50. Please reply with the labels ordered as requested. Many thanks.
II, III, I, IV
(II: 8.55, III: 9.00, I: 9.40, IV: 9.70)
